# targetDesc: Fibroblast growth factor 2 (Homo sapiens, UniProt P09038)
# Sequence (P09038 143-288 limits assumed): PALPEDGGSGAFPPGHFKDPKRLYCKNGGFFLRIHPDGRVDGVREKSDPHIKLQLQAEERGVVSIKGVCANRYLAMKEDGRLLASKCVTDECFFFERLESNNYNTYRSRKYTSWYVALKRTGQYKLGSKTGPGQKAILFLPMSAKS
# experimentNotes: Binding affinity to basic fibroblast growth factor (unknown origin) using sugar chip immobilized compound by surface plasmon resonance method
# settings: read-out: Kd
experimentalReadout: pKd
Notebook: values listed as pKd are -log10 of the concentration (mol/L).

CC(=O)N[C@H]1[C@@H](OC[C@@H](O)[C@@H](O)[C@H](O)[C@@H](O)CNc2cccc(NC(=O)CCCCC3CCSS3)c2)O[C@H](COS(=O)(=O)O)[C@H](OS(=O)(=O)O)[C@@H]1O[C@@H]1O[C@H](C(=O)O)[C@@H](O)[C@H](O)[C@H]1OS(=O)(=O)O (mixture of isomers) = 7.68
CC(=O)N[C@H]1[C@@H](OC[C@@H](O)[C@@H](O)[C@H](O)[C@@H](O)CNc2cccc(NC(=O)CCCCC3CCSS3)c2)O[C@H](CO)[C@H](OS(=O)(=O)O)[C@@H]1O[C@@H]1O[C@H](C(=O)O)[C@@H](O)[C@H](OS(=O)(=O)O)[C@H]1OS(=O)(=O)O (mixture of isomers) = 7.28

Note to self: pKd recorded for CC(=O)N[C@H]1[C@@H](OC[C@@H](O)[C@@H](O)[C@H](O)[C@@H](O)CNc2cccc(NC(=O)CCCCC3CCSS3)c2)O[C@H](CO)[C@H](OS(=O)(=O)O)[C@@H]1O[C@@H]1O[C@H](C(=O)O)[C@@H](O)[C@H](OS(=O)(=O)O)[C@H]1O (some centres undefined) was 7.39

Note to self: pKd recorded for CC(=O)N[C@H]1[C@@H](OC[C@@H](O)[C@@H](O)[C@H](O)[C@@H](O)CNc2cccc(NC(=O)CCCCC3CCSS3)c2)O[C@H](COS(=O)(=O)O)[C@H](OS(=O)(=O)O)[C@@H]1O[C@@H]1O[C@H](C(=O)O)[C@@H](O)[C@H](OS(=O)(=O)O)[C@H]1OS(=O)(=O)O (mixture of isomers) was 8.31
